pIC50: −log10 of the molar value.
The entries that follow carry pIC50 values tested on RORc (Homo sapiens), drawn from several published reports.
Readout kind: pIC50

A. CC1(C)[C@H]2CC[C@]1(c1cncc(-n3ccnc3)n1)c1nnc(-c3c(F)cccc3F)cc12
B. C[C@H](O)c1ccn(-c2nccc([C@@]34CC[C@@H](c5cc(-c6c(F)cccc6F)nnc53)C4(C)C)n2)n1
C. CC1(C)[C@H]2CC[C@]1(C(=O)N1CCC1)c1nnc(Oc3c(F)cccc3F)cc12
D. CC1(C)[C@H]2CC[C@]1([C@H]1CCCN(C(=O)c3ccno3)C1)c1nnc(-c3c(F)cccc3F)cc12 (stereo in doubt)
Query block: # ascending order, key=pIC50 Form field (ranking): labels in requested order.
Result block: C, D, B, A
(C: 6.27, D: 7.48, B: 7.97, A: 8.20)

a. CN(C)C(=O)N1CCO[C@H]([C@@]23CC[C@@H](c4cc(-c5c(F)cccc5F)nnc42)C3(C)C)C1
b. CC1(C)[C@H]2CC[C@]1([C@@H]1CN(C(=O)CO)CCO1)c1nnc(-c3c(F)cccc3F)cc12
c. CCOC(=O)N(CC(F)F)C[C@@]12CC[C@@H](c3cc(-c4c(F)cccc4F)nnc31)C2(C)C
d. COCC(=O)N[C@@]12CC[C@@H](c3cc(-c4ccccc4F)nnc31)C2(C)C
Query block: Rank ascending by pIC50. Form field (ranking): labels in requested order.
Result block: d, a, b, c
